system: human red blood cells (hRBCs); assay: Hemolytic activity; conditions: concentration causing 5% hemolysis of human red blood cells; about 1% hRBC in PBS, 37 °C, 1 h, OD 576 nm
Where no end group is shown, it is not given here.
endpoint-name: MHC (minimum hemolytic concentration) (µM)
Please state the figure in µM; there is no need to write the unit.

{"substance": "AKLWALKAKLWALKAKLWALK-NH2 [AA3s1]", "units-label": "µM", "MHC (minimum hemolytic concentration)": 16}
{"substance": "AKLWLKAAKLWLKA-NH2 [AA2]", "units-label": "µM", "MHC (minimum hemolytic concentration)": 128}
{"substance": "GKLWLKGGKLWLKGGKLWLKGGKLWLKG-NH2 [GG4]", "units-label": "µM", "MHC (minimum hemolytic concentration)": 16}
{"substance": "AKLWLKAAKLWLKAAKLWLKA-NH2 [AA3]", "units-label": "µM", "MHC (minimum hemolytic concentration)": 8}

Entry AKLWLKAAKLWLKAAKLWLKAAKLWLKA-NH2 [AA4] — recorded MHC (minimum hemolytic concentration) = 1
